# method-summary: Rat pharmacokinetics: FLG in serum after oral prodrug, absolute oral bioavailability
# test-parameters: in vivo
As shown below, each of these molecules has a reported 6 h absolute bioavail. % value.
Note: unit % is implicit; provide only the numeric part.

The following molecules have reported results that may help.
molecule	6 h absolute bioavail. % (%)
CCCCCCCCCCCCCCCCCC(=O)OC(COC(=O)[C@@H](N)C(C)C)C(=O)OC[C@H]1O[C@@H](n2cnc3c(=O)[nH]c(N)nc32)C[C@@H]1F (stereo partly shown)	81.5
CCCCCCCCCCCCCCCCCC(=O)OCC(COC(=O)[C@@H](N)C(C)C)CC(=O)OC[C@H]1O[C@@H](n2cnc3c(=O)[nH]c(N)nc32)C[C@@H]1F (stereo partly shown)	37
CCCCCCCCCCCCCCCCCC(=O)OCC(CCCC(=O)OC[C@H]1O[C@@H](n2cnc3c(=O)[nH]c(N)nc32)C[C@@H]1F)COC(=O)[C@@H](N)C(C)C (stereo partly shown)	29

Memo: `CC(C)[C@H](N)C(=O)OCC(COC(=O)[C@@H](N)C(C)C)OC(=O)CCC(=O)OC[C@H]1O[C@@H](n2cnc3c(=O)[nH]c(N)nc32)C[C@@H]1F` , reported 6 h absolute bioavail. %: 51

###

# method-summary: Bioavailability of FLG as detected by the present inventors
# test-parameters: in vivo; FLG itself
parameter-measured: bioavailability

Lab note: `Nc1nc2c(ncn2[C@H]2C[C@H](F)[C@@H](CO)O2)c(=O)[nH]1` gave bioavailability of ~4%
